B1: RSPH3 (parent)
chain: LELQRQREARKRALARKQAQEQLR

Variants of: B1
measurementDescription: protein stability index of a GFP-peptide fusion (GPS, HEK-293T) (PSI 1-6); higher = more stable;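 note: lentivirally expressed fusions sorted by FACS into six bins by GFP to DsRed ratio, PSI derived from sequencing read proportions per bin multiplied by bin number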
conditionSet: c terminus: a fixed tail appended
Rule: 1 for protein stability index not less than 4, -1 for anything less.

Please review the entries below; each comes with its answer.
>>> category("K17R")
1
>>> category("Q6G")
1

Say whether K11H shows protein stability index of 4 or more.
1

Reported protein stability index at or above 4? R24C
1

Check the entry E21M : does protein stability index equal or exceed 4?
-1
